- ASSAY_TEXT: Thermodynamic solubility of compound in 67 mM phosphate buffer at pH 7.4 after 24 hrs by HPLC analysis
- Assay type: physicochemical
- EXPERIMENTAL_CONDITIONS: read-out: Therm_solubility
// reported log10 solubility thermodynamic at 24 h per item
Quick note: numbers are log10 of solubility thermodynamic at 24 h, with µg/mL as the unit.

structure_as_smiles=COc1ccc(C(=O)Nc2ncc(-c3ccc(C(=O)O)cc3)s2)cc1 endpoint_value=0.43
structure_as_smiles=O=C(O)c1ccc2c(c1)nc(Nc1cccc(Cl)c1)c1ccncc12 endpoint_value=1.76
structure_as_smiles=COc1ccc(C(=O)Nc2ncc(-c3ccc(C(=O)O)nn3)s2)cc1 endpoint_value=3.01
structure_as_smiles=COc1ccc(C(=O)Nc2ncc(-c3ccc(C(=O)O)cc3OCc3ccccc3OC)s2)cc1 endpoint_value=0.15
structure_as_smiles=COc1ccc(C(=O)Nc2ncc(-c3ccc(C(=O)O)nc3)s2)cc1 endpoint_value=1.15

**Q:** Specify measured log10 solubility thermodynamic at 24 h for `COc1ccc(C(=O)Nc2ncc(-c3ccc(C(=O)O)cn3)s2)cc1` .
**A:** 1.95

====

- STUDY_TARGET: Casein kinase II subunit alpha (Homo sapiens, UniProt P68400)
- Sequence (P68400 whole entry, the tested form may be a part): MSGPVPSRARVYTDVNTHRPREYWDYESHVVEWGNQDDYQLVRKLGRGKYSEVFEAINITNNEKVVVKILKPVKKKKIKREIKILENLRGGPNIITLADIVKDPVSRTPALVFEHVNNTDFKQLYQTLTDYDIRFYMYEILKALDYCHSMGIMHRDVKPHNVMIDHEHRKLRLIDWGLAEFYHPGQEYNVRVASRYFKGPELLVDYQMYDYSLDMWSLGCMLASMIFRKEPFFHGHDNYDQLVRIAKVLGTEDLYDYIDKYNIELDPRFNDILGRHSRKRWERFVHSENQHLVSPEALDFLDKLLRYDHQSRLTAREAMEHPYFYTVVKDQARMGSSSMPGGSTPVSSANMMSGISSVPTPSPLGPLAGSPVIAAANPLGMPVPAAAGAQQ
- ASSAY_TEXT: Inhibition of GST-tagged human CK2alpha (1 to 391 residues) using CK2tide as substrate incubated for 1 hr by off-chip mobility shift assay
READOUT_NAME: pIC50
Scale for pIC50: -log10 of concentration given in mol/L; no unit attached.

**Q:** Report its pIC50 with Casein kinase II subunit alpha (Homo sapiens, UniProt P68400) as the test system: `COc1ccc(C(=O)Nc2ncc(-c3ccc(C(=O)O)cc3)s2)cc1`
**A:** 7.70
